Data provenance: ChEMBL document CHEMBL6182949

- test-name: Oral bioavailability in Beagle dog at 10 mg/kg measured up to 24 hrs by LC-MS/MS analysis
- Type: ADME, organism-based, Canis lupus familiaris
- particulars: in vivo
quantity-name: bioavailability (%)
Write the number in % without appending the unit.

Give bioavailability for Cn1c(=O)n(C2CCC(=O)NC2=O)c2cccc(C#CCO[C@H]3CC[C@H](CN4CCC5(CC4)Cc4cc(NC(=O)c6coc7cccnc67)c(N6CCC(CO)CC6)cc4O5)CC3)c21 (stereo partly specified)
39

---

Parameter: AUClast. Scope: all listed entries.
- test-name: AUClast in Sprague-Dawley rat at 10 mg/kg, po measured up to 24 hrs by LC-MS/MS analysis
- Type: ADME, organism-based
- particulars: in vivo

Answered examples (3):
Cn1c(=O)n(C2CCC(=O)NC2=O)c2cccc(C#CCO[C@H]3CC[C@H](CN4CCC5(CC4)Cc4cc(NC(=O)c6cnn7cc(F)cnc67)c(N6CCC(CO)CC6)cc4O5)CC3)c21 (some centres undefined) = 8344 ng·h/mL
Cn1c(=O)n(C2CCC(=O)NC2=O)c2cccc(C#CCO[C@H]3CC[C@H](CN4CCC5(CC4)Cc4cc(NC(=O)c6cnn7cccnc67)c(N6CCC(O)CC6)cc4O5)CC3)c21 (some centres undefined) = 3395 ng·h/mL
Cn1c(=O)n(C2CCC(=O)NC2=O)c2cccc(C#CCO[C@H]3CC[C@H](CN4CCC5(CC4)Cc4cc(NC(=O)c6cnn7cccnc67)c(N6CCC(CO)CC6)cc4O5)CC3)c21 (some centres undefined) = 3524 ng·h/mL

Now for a further compound.
Give AUClast for Cn1c(=O)n(C2CCC(=O)NC2=O)c2cccc(C#CCO[C@H]3CC[C@H](CN4CCC5(CC4)Cc4cc(NC(=O)c6coc7cccnc67)c(N6CCC(CO)CC6)cc4O5)CC3)c21 (some centres undefined)
7093 ng·h/mL

---

- test-name: Metabolic stability monkey hepatocyte assessed as half life at 1 uM measured up to 120 mins by LC-MS/MS analysis
- Format: ADME, cell-based, Macaca mulatta
- particulars: rhesus monkey, hepatocytes
quantity-name: half-life at 1 µM

Give half-life at 1 µM for Cn1c(=O)n(C2CCC(=O)NC2=O)c2cccc(C#CCO[C@H]3CC[C@H](CN4CCC5(CC4)Cc4cc(NC(=O)c6coc7cccnc67)c(N6CCC(CO)CC6)cc4O5)CC3)c21 (stereo partly specified)
> 6.18 h

---

- test-name: AUClast in Beagle dog at 2 mg/kg, iv measured up to 24 hrs by LC-MS/MS analysis
- Assay type: ADME, organism-based, Canis lupus familiaris
- particulars: in vivo
quantity-name: AUC(0-t) at 24 h

Give AUC(0-t) at 24 h for Cn1c(=O)n(C2CCC(=O)NC2=O)c2cccc(C#CCO[C@H]3CC[C@H](CN4CCC5(CC4)Cc4cc(NC(=O)c6coc7cccnc67)c(N6CCC(CO)CC6)cc4O5)CC3)c21 (stereo partly specified)
2670 ng·h/mL

---

- test-name: Cmax in cynomolgus monkey at 1 mg/kg, iv measured up to 24 hrs by LC-MS/MS analysis
- Assay type: ADME, organism-based, Macaca fascicularis
- particulars: in vivo
quantity-name: Cmax (ng/mL)
Write the number in ng/mL without appending the unit.

Give Cmax for Cn1c(=O)n(C2CCC(=O)NC2=O)c2cccc(C#CCO[C@H]3CC[C@H](CN4CCC5(CC4)Cc4cc(NC(=O)c6coc7cccnc67)c(N6CCC(CO)CC6)cc4O5)CC3)c21 (stereo partly specified)
672
